# TARGET_ENTITY: hAM2 receptor (CALCRL:RAMP3) (Homo sapiens, UniProt O60896+Q16602)
# Construct: expressed in transfected cells; host or cells: GeneBLAzer CALCRL:RAMP3-CRE-bla Freestyle 293F
# Sequence (Q16602 23-461): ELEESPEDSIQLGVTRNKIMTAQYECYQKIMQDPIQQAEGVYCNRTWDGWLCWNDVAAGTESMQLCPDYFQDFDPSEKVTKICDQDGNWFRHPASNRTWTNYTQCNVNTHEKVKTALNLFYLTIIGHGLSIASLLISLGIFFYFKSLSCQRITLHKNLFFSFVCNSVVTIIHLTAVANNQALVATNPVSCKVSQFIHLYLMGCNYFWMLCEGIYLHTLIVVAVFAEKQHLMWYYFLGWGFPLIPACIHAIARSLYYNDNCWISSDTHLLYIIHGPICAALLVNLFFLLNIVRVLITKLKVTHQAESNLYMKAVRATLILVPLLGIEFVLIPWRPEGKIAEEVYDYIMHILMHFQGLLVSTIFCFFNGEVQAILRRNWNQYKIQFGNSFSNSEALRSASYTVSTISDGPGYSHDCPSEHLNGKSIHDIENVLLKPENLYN
# Sequence (O60896 24-148): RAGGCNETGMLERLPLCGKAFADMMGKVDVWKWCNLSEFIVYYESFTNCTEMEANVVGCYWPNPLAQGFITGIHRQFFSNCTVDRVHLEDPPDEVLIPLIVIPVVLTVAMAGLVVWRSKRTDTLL
# EXPERIMENT: AM2 receptor antagonist activity measured by cAMP assay (HTRF)
# Format: cell-based
# EXPERIMENTAL_SETUP: selectivity ratio for hCGRP over hAM2, calculated from the IC50 values
Numbered stars: 1 amine (or outer) side, 2 acyl side, 3 side chain; on linkers, the order of the positions; unused ones are H or OH. Bridge positions count the residues as written; N and C are the ends. Square brackets hold non-standard residues; d marks the D form. Peptide text beside a SMILES is read from it. * marks the point of attachment. X16 = CCN(CC)CC[C@H](N[*:1])C(=O)[*:2]; Imidazole4carbonyl = O=C(c1cnc[nH]1)*; 3Pal = N[C@@H](Cc1cccnc1)C(=O)O; Picolinoyl = O=C(c1ccccn1)*; X9 = Nc1cccnc1C(=O)*
MEASURE_NAME: selectivity ratio CGRP/AM2
# print the numeric value only

Use these answered entries as a reference point.
1. CC(C)[C@@H]1NC(=O)[C@H](CC(=O)O)NC(=O)[C@H](CCCNC(=N)N)NC(=O)[C@@H](NC(=O)[C@H](Cc2ccc(O)cc2)NC(=O)[C@H](NC(=O)c2cnc[nH]2)C(C)C)CSSC[C@@H](C(=O)N[C@@H](Cc2cccnc2)C(N)=O)NC(=O)[C@H](Cc2ccccc2)NC(=O)[C@@H]2CCCN2C(=O)CNC1=O [Compound 37] (Imidazole4carbonyl-[dV]YCRDVGPFC[3Pal]-NH2; disulfide 3-10) : 2295
2. CCN(CC)CC[C@@H]1NC(=O)[C@@H](NC(=O)[C@H](Cc2ccc(O)cc2)NC(=O)[C@H](NC(=O)c2ccccn2)C(C)C)CSSC[C@@H](C(=O)N[C@@H](Cc2cccnc2)C(N)=O)NC(=O)[C@H](Cc2ccccc2)NC(=O)[C@@H]2CCCN2C(=O)CNC(=O)[C@H](C(C)C)NC(=O)[C@H](CC(=O)O)NC1=O [Compound 8] (Picolinoyl-[dV]YC[X16]DVGPFC[3Pal]-NH2; disulfide 3-10) : 347

Let's switch to this compound now.
In plain terms, CC(C)[C@@H]1NC(=O)[C@H](CC(=O)O)NC(=O)[C@H](CCCNC(=N)N)NC(=O)[C@@H](NC(=O)[C@H](Cc2ccc(O)cc2)NC(=O)[C@H](NC(=O)c2ncccc2N)C(C)C)CSSC[C@@H](C(=O)N[C@@H](Cc2cccnc2)C(N)=O)NC(=O)[C@H](Cc2ccccc2)NC(=O)[C@@H]2CCCN2C(=O)CNC1=O [Compound 36] (X9-[dV]YCRDVGPFC[3Pal]-NH2; disulfide 3-10) has a documented selectivity ratio CGRP/AM2 of 93

###

# TARGET_ENTITY: hCGRP receptor (CALCRL:RAMP1) (Homo sapiens, UniProt O60894+Q16602)
# Construct: host or cells: GeneBLAzer CALCRL:RAMP1-CRE-bla Freestyle 293F
# Sequence (Q16602 23-461): as the sequence (Q16602 23-461) above
# Sequence (O60894 27-148): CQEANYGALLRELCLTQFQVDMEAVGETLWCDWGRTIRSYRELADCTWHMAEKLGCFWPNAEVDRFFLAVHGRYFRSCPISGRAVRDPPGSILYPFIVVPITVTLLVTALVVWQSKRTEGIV
# EXPERIMENT: CGRP receptor antagonist activity measured by cAMP assay (HTRF)
# Format: cell-based
# EXPERIMENTAL_SETUP: GeneBLAzer CALCRL:RAMP1-CRE-bla Freestyle 293F cells; agonist human α-CGRP; 30 minutes; read-out: hCGRP-R IC50 Ave
Bridge positions count the residues as written; N and C are the ends. Square brackets hold non-standard residues; d marks the D form. Peptide text beside a SMILES is read from it. * marks the point of attachment. 3Pal = N[C@@H](Cc1cccnc1)C(=O)O; Picolinoyl = O=C(c1ccccn1)*; X2 = Cc1n[nH]c(C(=O)*)n1
MEASURE_NAME: IC50 (nM)
Note: unit nM is implicit; provide only the numeric part.

Item CC(C)[C@@H]1NC(=O)[C@H](CC(=O)O)NC(=O)[C@H](CCCNC(=N)N)NC(=O)[C@@H](NC(=O)[C@H](Cc2ccc(O)cc2)NC(=O)[C@H](NC(=O)c2ccccn2)C(C)C)CSSC[C@@H](C(=O)N[C@@H](Cc2cccnc2)C(N)=O)NC(=O)[C@H](Cc2cccnc2)NC(=O)[C@@H]2CCCN2C(=O)CNC1=O [Compound 3] (Picolinoyl-[dV]YCRDVGP[3Pal]C[3Pal]-NH2; disulfide 3-10) was tested on hCGRP receptor (CALCRL:RAMP1) (Homo sapiens, UniProt O60894+Q16602); the reported IC50 is 0.12

The molecule Cc1n[nH]c(C(=O)N[C@@H](C(=O)N[C@@H](Cc2ccc(O)cc2)C(=O)N[C@H]2CSSC[C@@H](C(=O)N[C@@H](Cc3cccnc3)C(N)=O)NC(=O)[C@H](Cc3ccccc3)NC(=O)[C@@H]3CCCN3C(=O)CNC(=O)[C@H](C(C)C)NC(=O)[C@H](CC(=O)O)NC(=O)[C@H](CCCNC(=N)N)NC2=O)C(C)C)n1 [Compound 48] (X2-[dV]YCRDVGPFC[3Pal]-NH2; disulfide 3-10) , tested on hCGRP receptor (CALCRL:RAMP1) (Homo sapiens, UniProt O60894+Q16602), showed IC50 of 0.07

###

# TARGET_ENTITY: hAM2 receptor (CALCRL:RAMP3) (Homo sapiens, UniProt O60896+Q16602)
# Construct: expressed in transfected cells; host or cells: GeneBLAzer CALCRL:RAMP3-CRE-bla Freestyle 293F
# EXPERIMENT: AM2 receptor antagonist activity measured by cAMP assay (HTRF)
# Type: cell-based
# EXPERIMENTAL_SETUP: % MPE: percent of the maximal possible effect; agonist human adrenomedullin; read-out: hAM2-R Efficacy Antag (%) Ave
Numbered stars: 1 amine (or outer) side, 2 acyl side, 3 side chain; on linkers, the order of the positions; unused ones are H or OH. Bridge positions count the residues as written; N and C are the ends. Square brackets hold non-standard residues; d marks the D form. Peptide text beside a SMILES is read from it. * marks the point of attachment. Phe(3-CH2NH2) = O=C([C@H](Cc1cccc(CN[*:3])c1)N[*:1])[*:2]; X5 = O=C([C@H](Cc1ccc(CO)cc1)N[*:1])[*:2]; Benzoyl(4-F) = O=C(c1ccc(F)cc1)*; Oxazole2carbonyl = O=C(c1ncco1)*; 3Pal = N[C@@H](Cc1cccnc1)C(=O)O; Orn = NCCC[C@H](N)C(=O)O; X1 = O=C(c1ncccc1F)*
MEASURE_NAME: Emax (%)
Write the answer as a number in %, unit excluded.

1) CC(C)[C@@H]1NC(=O)[C@H](CC(=O)O)NC(=O)[C@H](CCCN)NC(=O)[C@@H](NC(=O)[C@H](Cc2ccc(O)cc2)NC(=O)[C@H](NC(=O)c2ncccc2F)C(C)C)CSSC[C@@H](C(=O)N[C@@H](Cc2cccnc2)C(N)=O)NC(=O)[C@H](Cc2ccc(CO)cc2)NC(=O)[C@@H]2CCCN2C(=O)CNC1=O [Compound 29] (X1-[dV]YC[Orn]DVGP[X5]C[3Pal]-NH2; disulfide 3-10) : 98

Given item CC(C)[C@@H]1NC(=O)[C@H](CC(=O)O)NC(=O)[C@H](CCCNC(=N)N)NC(=O)[C@@H](NC(=O)[C@H](Cc2ccc(O)cc2)NC(=O)[C@H](NC(=O)c2ncco2)C(C)C)CSSC[C@@H](C(=O)N[C@@H](Cc2cccnc2)C(N)=O)NC(=O)[C@H](Cc2cccnc2)NC(=O)[C@@H]2CCCN2C(=O)CNC1=O [Compound 11] (Oxazole2carbonyl-[dV]YCRDVGP[3Pal]C[3Pal]-NH2; disulfide 3-10) , the value recorded as its Emax is 108

Consider CC(C)[C@@H]1NC(=O)[C@H](CC(=O)O)NC(=O)[C@H](CCCNC(=N)N)NC(=O)[C@@H](NC(=O)[C@H](Cc2ccc(O)cc2)NC(=O)[C@H](NC(=O)c2ccc(F)cc2)C(C)C)CSSC[C@@H](C(=O)N[C@@H](Cc2cccnc2)C(N)=O)NC(=O)[C@H](Cc2cccc(CN)c2)NC(=O)[C@@H]2CCCN2C(=O)CNC1=O [Compound 5] ({Benzoyl(4-F)}-[dV]YCRDVGP[Phe(3-CH2NH2)]C[3Pal]-NH2; disulfide 3-10) . Its measured Emax is 99

###

# TARGET_ENTITY: hCGRP receptor (CALCRL:RAMP1) (Homo sapiens, UniProt O60894+Q16602)
# Construct: host or cells: GeneBLAzer CALCRL:RAMP1-CRE-bla Freestyle 293F
# EXPERIMENT: CGRP receptor antagonist activity measured by cAMP assay (HTRF)
# Type: cell-based
# EXPERIMENTAL_SETUP: GeneBLAzer CALCRL:RAMP1-CRE-bla Freestyle 293F cells; agonist human α-CGRP; 30 minutes; read-out: hCGRP-R IC50 Ave
Numbered stars: 1 amine (or outer) side, 2 acyl side, 3 side chain; on linkers, the order of the positions; unused ones are H or OH. Bridge positions count the residues as written; N and C are the ends. Square brackets hold non-standard residues; d marks the D form. Peptide text beside a SMILES is read from it. * marks the point of attachment. Phe(3-CH2NH2) = O=C([C@H](Cc1cccc(CN[*:3])c1)N[*:1])[*:2]; Phe(3-CONH2) = NC(=O)c1cccc(C[C@H](N)C(=O)O)c1; Phe(2-CONH2) = NC(=O)c1ccccc1C[C@H](N)C(=O)O; Picolinoyl(3,5-F2) = O=C(c1ncc(F)cc1F)*; X14 = CCN(CC)CCC[C@H](N[*:1])C(=O)[*:2]; Orn(iPr) = CC(C)NCCC[C@H](N)C(=O)O; Benzoyl(4-F) = O=C(c1ccc(F)cc1)*; Oxazole2carbonyl = O=C(c1ncco1)*; 3Pal = N[C@@H](Cc1cccnc1)C(=O)O; Picolinoyl = O=C(c1ccccn1)*; ΔPro = O=C(O)[C@@H]1C=CCN1
Lab note: anything with IC50 below 100 pM is marked Condition met; values at 100 pM or higher are marked Condition not met.

Observe how each entry below is paired with its result.
1. CC(C)[C@@H]1NC(=O)[C@H](CC(=O)O)NC(=O)[C@H](CCCNC(=N)N)NC(=O)[C@@H](NC(=O)[C@H](Cc2ccc(O)cc2)NC(=O)[C@H](NC(=O)c2ccc(F)cc2)C(C)C)CSSC[C@@H](C(=O)N[C@@H](Cc2cccnc2)C(N)=O)NC(=O)[C@H](Cc2cccc(CN)c2)NC(=O)[C@@H]2CCCN2C(=O)CNC1=O [Compound 5] ({Benzoyl(4-F)}-[dV]YCRDVGP[Phe(3-CH2NH2)]C[3Pal]-NH2; disulfide 3-10) : Condition not met
2. CC(C)NCCC[C@@H]1NC(=O)[C@@H](NC(=O)[C@H](Cc2ccc(O)cc2)NC(=O)[C@H](NC(=O)c2ncc(F)cc2F)C(C)C)CSSC[C@@H](C(=O)N[C@@H](Cc2cccnc2)C(N)=O)NC(=O)[C@H](Cc2ccccc2)NC(=O)[C@@H]2CCCN2C(=O)CNC(=O)[C@H](C(C)C)NC(=O)[C@H](CC(=O)O)NC1=O [Compound 62] ({Picolinoyl(3,5-F2)}-[dV]YC[Orn(iPr)]DVGPFC[3Pal]-NH2; disulfide 3-10) : Condition not met
3. CCN(CC)CCC[C@@H]1NC(=O)[C@@H](NC(=O)[C@H](Cc2ccc(O)cc2)NC(=O)[C@H](NC(=O)c2ccccn2)C(C)C)CSSC[C@@H](C(=O)N[C@@H](Cc2cccnc2)C(N)=O)NC(=O)[C@H](Cc2ccccc2)NC(=O)[C@@H]2CCCN2C(=O)CNC(=O)[C@H](C(C)C)NC(=O)[C@H](CC(=O)O)NC1=O [Compound 24] (Picolinoyl-[dV]YC[X14]DVGPFC[3Pal]-NH2; disulfide 3-10) : Condition not met
4. CC(C)NCCC[C@@H]1NC(=O)[C@@H](NC(=O)[C@H](Cc2ccccc2C(N)=O)NC(=O)[C@H](NC(=O)c2ncco2)C(C)C)CSSC[C@@H](C(=O)N[C@@H](Cc2cccnc2)C(N)=O)NC(=O)[C@H](Cc2cccc(C(N)=O)c2)NC(=O)[C@@H]2C=CCN2C(=O)CNC(=O)[C@H](C(C)C)NC(=O)[C@H](CC(=O)O)NC1=O [Compound 65] (Oxazole2carbonyl-[dV][Phe(2-CONH2)]C[Orn(iPr)]DVG[ΔPro][Phe(3-CONH2)]C[3Pal]-NH2; disulfide 3-10) : Condition met

**Query** Answer whether the compound CC(C)NCCC[C@@H]1NC(=O)[C@@H](NC(=O)[C@H](Cc2ccccc2C(N)=O)NC(=O)[C@H](NC(=O)c2ncco2)C(C)C)CSSC[C@@H](C(=O)N[C@@H](Cc2cccnc2)C(N)=O)NC(=O)[C@H](Cc2cccnc2)NC(=O)[C@@H]2C=CCN2C(=O)CNC(=O)[C@H](C(C)C)NC(=O)[C@H](CC(=O)O)NC1=O [Compound 58] (Oxazole2carbonyl-[dV][Phe(2-CONH2)]C[Orn(iPr)]DVG[ΔPro][3Pal]C[3Pal]-NH2; disulfide 3-10) has IC50 strictly less than 100 pM
**Result** Condition not met

Each recorded value in this set is attributed to patent US9969775B2.
